Target: human PD-1 (Jurkat-PD-1 cells) / PE-labeled human PD-L1-Ig (Homo sapiens, UniProt Q15116)
Construct: expressed in transfected cells; host or cells: Jurkat cell line over-expressing human PD-1
Sequence (Q15116 25-288): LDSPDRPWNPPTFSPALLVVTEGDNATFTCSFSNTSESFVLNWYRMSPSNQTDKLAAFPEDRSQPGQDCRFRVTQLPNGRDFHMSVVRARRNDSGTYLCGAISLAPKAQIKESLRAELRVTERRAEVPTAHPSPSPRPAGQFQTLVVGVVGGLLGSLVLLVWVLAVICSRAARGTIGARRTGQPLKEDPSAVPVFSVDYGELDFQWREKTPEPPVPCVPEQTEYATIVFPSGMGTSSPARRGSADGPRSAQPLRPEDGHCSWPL
Test name: Jurkat-PD-1 Cell Binding High-Content Screening Assay (CBA); Jurkat hPD1-PDL1 assay
Condition context: Jurkat cell line over-expressing human PD-1; PE-labeled PD-L1-Ig 20 nM final; compound incubated 2 hours at 37° C.; read-out: Jurkat HPD1-PDL1 IC50
pIC50: −log10 of the molar value. Positions of bridges follow the written chain, without caps; N, C: chain ends. Non-standard residues stand in square brackets, D forms with d. Residues, ends and D or L forms follow the SMILES beside them. *: point of attachment. Bip = N[C@@H](Cc1ccc(-c2ccccc2)cc1)C(=O)O; Carboxymethyl = O=C(O)C*; NMeA = CN[C@@H](C)C(=O)O; Sar = CNCC(=O)O

Compound	pIC50
CC(C)C[C@@H]1NC(=O)[C@H](CCCNC(=N)N)NC(=O)[C@H]2CCCN2C(=O)[C@H](C)N(C)C(=O)[C@H](C(C)C)NC(=O)[C@H](Cc2ccc(-c3ccccc3)cc2)NC(=O)[C@H](C(C)C)NC(=O)[C@H](Cc2c[nH]c3ccccc23)NC(=O)[C@H](CC(=O)O)NC(=O)[C@H](Cc2ccc(O)cc2)NC(=O)[C@H](Cc2ccccc2)NC(=O)CSC[C@@H](C(=O)N[C@@H](C)C(N)=O)NC(=O)[C@H](CO)NC(=O)[C@H](C(C)C)NC1=O [Example 1075] ({CH2CO}-FYDWV[Bip]V[NMeA][dP]RLVSCA-NH2; thioether N-14)	6.70
CC(C)C[C@@H]1NC(=O)[C@H](Cc2c[nH]c3ccccc23)NC(=O)[C@H](CC(=O)O)NC(=O)[C@H](Cc2ccc(O)cc2)NC(=O)[C@H](Cc2ccc(OCC(=O)O)cc2)NC(=O)CSC[C@@H](C(=O)NCC(N)=O)NC(=O)[C@H](CO)NC(=O)[C@H](C(C)C)NC(=O)[C@H](CC(C)C)NC(=O)[C@H](CC(N)=O)NC(=O)CN(C)C(=O)[C@H](C)N(C)C(=O)[C@H](C(C)C)NC(=O)[C@H](Cc2ccc(-c3ccccc3)cc2)NC1=O [Example 1137] ({CH2CO}-Y(Carboxymethyl)YDWL[Bip]V[NMeA][Sar]NLVSCG-NH2; thioether N-14)	6.25
